The measured values listed here are drawn from the supplement of paper PMC10724198.

Tested on: Saccharomyces cerevisiae
Assay: protein stability index of tFT-peptide fusion (C-terminal peptide) (PSI (0-1 scale)); higher = more stable (slower turnover)
Conditions: genetic background: wild type; temperature: 37 C
Think of 0.4 as a floor: if protein stability index stands on it or above, it is yes; beneath it, no.

The examples below pair each entry with its known result.
INSERT INTO measurements (biopolymer_sequence, test_system, class) VALUES
  ('FLVCTFCRWVWL', 'Saccharomyces cerevisiae', 'no'),
  ('GGVSPRSSMDLL', 'Saccharomyces cerevisiae', 'yes'),
  ('LFLVFIGLFFLT', 'Saccharomyces cerevisiae', 'yes');

Exam item: Could you please find out whether RHIRGLNLIKLI has protein stability index that meets 0.4 or exceeds it?
Marked response: no

Exam item: Hello, I need to know if VCMVLCRWRGLG has measured protein stability index not below 0.4. Thanks!
Marked response: yes

----------
Test system: Saccharomyces cerevisiae
Assay: protein stability index of tFT-peptide fusion (C-terminal peptide) (PSI (0-1 scale)); higher = more stable (slower turnover)
Settings: genetic background: cdc34-1; temperature: 37 C
MEASUREMENT KIND: protein stability index
Just the number, please, no unit attached.

Consider the worked cases shown below.
INSERT INTO results (biopolymer_sequence, value_reported) VALUES
  ('ETVHVISLIAIG', 0.428),
  ('IFFFQFLWFCLS', 0.296),
  ('VFFFVSFFAFSS', 0.213),
  ('FLAFLEPRVCCA', 0.23),
  ('VFTGYSAFLLLC', 0.325);

Exam item: Recorded protein stability index of VVIYWFLPIIFA , please.
Marked response: 0.0949

Exam item: Which protein stability index is reported for this sequence? KKKQAILRTLKI
Marked response: 0.681

Exam item: For the sequence shown here, SLIFLLVLILSL , give the reported protein stability index.
Marked response: 0.412

Exam item: Given the entry RVYLLGLFVRSG , report its measured protein stability index.
Marked response: 0.552

----------
Catalogue of sequences with associated protein stability index
System: Saccharomyces cerevisiae
Assay: protein stability index of tFT-peptide fusion (C-terminal peptide) (PSI (0-1 scale)); higher = more stable (slower turnover)
Conditions: genetic background: wild type; temperature: 30 C
Number only, please.

Example entries begin here.
INSERT INTO measurements (biopolymer_sequence, test_system, value_reported) VALUES
  ('GVLGRVRLGWVG', 'Saccharomyces cerevisiae', 0.671),
  ('EFFTLYDLVRFI', 'Saccharomyces cerevisiae', 0.38),
  ('PTRERPSDQPYP', 'Saccharomyces cerevisiae', 0.701),
  ('VRCSLPSPSPRP', 'Saccharomyces cerevisiae', 0.77),
  ('PPPLPPPPHGVP', 'Saccharomyces cerevisiae', 0.689),
  ('VSLSPVFLGFYR', 'Saccharomyces cerevisiae', 0.706),
  ('VIVIQGFVFVLG', 'Saccharomyces cerevisiae', 0.279),
  ('AVLSFVLVRSVV', 'Saccharomyces cerevisiae', 0.471),
  ('SFSSAVIPPFAP', 'Saccharomyces cerevisiae', 0.728),
  ('GFKIEVIQASGS', 'Saccharomyces cerevisiae', 0.683);

Exam item: // lookup protein stability index for PPPPPLPPAPPP
Marked response: 0.558

----------
Test system: Saccharomyces cerevisiae
Assay: protein stability index of tFT-peptide fusion (C-terminal peptide) (PSI (0-1 scale)); higher = more stable (slower turnover)
Conditions: genetic background: das1 deletion; temperature: 30 C
MEASUREMENT KIND: protein stability index

Illustrative cases are given below, each with its answer.
INSERT INTO measurements (biopolymer_sequence, value_reported) VALUES
  ('IFSSLVHYCNAG [LST4 C-terminal 12 aa]', 0.729),
  ('EVYLQAIDLIDC [PIR3 C-terminal 12 aa]', 0.677),
  ('IVLPMIKDYLFS [HLJ1 C-terminal 12 aa]', 0.678),
  ('CKYPTKDIPIFF [RAD17 C-terminal 12 aa]', 0.727);

Moving on to the next sequence.
Exam item: Can you look up the measured protein stability index of NFGVSSSFSFKP [PEX3 C-terminal 12 aa] for me?
Marked response: 0.703
